target or test system: T1, apical domain of cynomolgus CD71 (cynomolgus, UniProt A0A2K5X958 189-383)
T1 construct: domain: apical domain; also called Cyno apical domain
T1 sequence (A0A2K5X958 entry or part of it): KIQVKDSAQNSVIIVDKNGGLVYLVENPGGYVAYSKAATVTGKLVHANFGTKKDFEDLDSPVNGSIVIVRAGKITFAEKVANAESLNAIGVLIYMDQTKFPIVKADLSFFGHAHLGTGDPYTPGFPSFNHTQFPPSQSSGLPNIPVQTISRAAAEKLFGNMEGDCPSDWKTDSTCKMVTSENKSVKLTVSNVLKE
experimental protocol: primary ELISA, signal ratio to HSA
Below, each entry is listed alongside its reported Cyno apical domain:HSA.
The response must contain the number and no unit.

# binder, reported result
measured = [
    ("CD71-binding FN3 domain of SEQ ID NO: 123 (designed binder) MSLPAPKNLVVSRVTEDSARLSWTAPDAAFDSFAIRYWELRATGEAIPLSVPGSERSYDLTGLKPGTEYHVAISGVKGGKSSYPLRASFTT", 125),
    ("CD71-binding FN3 domain of SEQ ID NO: 205 (designed binder) MSLPAPKNLVVSRVTEDSARLSWTAPDAAFDSFEIGYFENLYLGEAIHLFVPGSERSYDLTGLKPGTEYNVTIQGVKGGFPSEPLIANFTT", 213),
    ("CD71-binding FN3 domain of SEQ ID NO: 213 (designed binder) MSLPAPKNLVVSRVTEDSARLSWTAPDAAFDSFEIGYFENLYLGEAIVLTVPGSERSYDLTGLKPGTEYWVQIGGAKGGNWSAPLSAIFTT", 251),
]

Look up Cyno apical domain:HSA for this binder: CD71-binding FN3 domain of SEQ ID NO: 177 (designed binder) MSLPAPKNLVVSRVTEDSARLSWTAPDAAFDSFEIGYFENLYLGEAIVLTVPGSERSYDLTSLKPGTEYWVQIGGVKGGNWSAPLSAIFTT
156
